- Target under test: rat orexin 1 receptor (Rattus norvegicus)
- Assay remarks: Rat orexin 1 receptor radioligand binding
- Reported conditions: rat orexin 1 receptor; averages of 2-20 runs; read-out: rOX1 Ki
Measured quantity: pKi
Remember the convention: pKi equals -log10 of concentration in molar.

Below: 5 compounds and their reported pKi.
{"Compound": "O=C(c1cc(F)ccc1-c1ncccn1)N1C[C@@H]2CC[C@H]1[C@H](Nc1cnc(C(F)(F)F)cn1)C2 [Example 278]", "Target under test": "rat orexin 1 receptor (Rattus norvegicus)", "pKi": 7.85}
{"Compound": "COc1cccc(-c2ncccn2)c1C(=O)N1C[C@H]2C[C@@H](Oc3ccc(C(F)(F)F)cn3)[C@@H]1C2 [Example 40]", "Target under test": "rat orexin 1 receptor (Rattus norvegicus)", "pKi": 7.82}
{"Compound": "O=C(c1cc(F)ccc1-c1ncccn1)N1C[C@H]2C[C@@H](Nc3ncc(C(F)(F)F)cn3)[C@@H]1C2 [Example 228]", "Target under test": "rat orexin 1 receptor (Rattus norvegicus)", "pKi": 7.96}
{"Compound": "O=C(c1ncccc1-c1ncccn1)N1C[C@H]2C[C@@H](Nc3cnc(C(F)(F)F)cn3)[C@@H]1C2 [Example 189]", "Target under test": "rat orexin 1 receptor (Rattus norvegicus)", "pKi": 7.85}
{"Compound": "O=C(c1c(F)cccc1-c1ncccn1)N1C[C@H]2C[C@@H](Nc3ncc(Cl)cn3)[C@@H]1C2 [Example 239]", "Target under test": "rat orexin 1 receptor (Rattus norvegicus)", "pKi": 7.64}

Asked: // fetch pKi given entry O=C(c1ccc(F)cc1-c1ncccn1)N1C[C@H]2C[C@@H](Nc3ncc(C(F)(F)F)cn3)[C@@H]1C2 [Example 227]
Given back: 7.92

Asked: // fetch pKi given entry O=C(c1ccccc1-c1ccccc1)N1C[C@H]2C[C@@H](Nc3cnc(C(F)(F)F)cn3)[C@@H]1C2 [Example 206]
Given back: 8.10

Asked: // fetch pKi given entry O=C(c1nccnc1-c1ccccc1)N1C[C@H]2C[C@@H](Nc3cnc(C(F)(F)F)cn3)[C@@H]1C2 [Example 205]
Given back: 7.29

Asked: // fetch pKi given entry O=C(c1cccc(F)c1-c1ncc(F)cn1)N1C[C@H]2C[C@@H](Nc3cnc(C(F)(F)F)cn3)[C@@H]1C2 [Example 204]
Given back: 8.05

Asked: // fetch pKi given entry Cc1noc(-c2cc(F)ccc2C(=O)N2C[C@H]3C[C@@H](Oc4ccc(C(F)(F)F)cn4)[C@@H]2C3)n1 [Example 291]
Given back: 7.37

Asked: // fetch pKi given entry COc1ccc(C(=O)N2C[C@H]3C[C@@H](Nc4cnc(C(F)(F)F)cn4)[C@@H]2C3)c(-n2nccn2)c1 [Example 197]
Given back: 7.03

Asked: // fetch pKi given entry O=C(c1ccc(F)cc1-c1ncccn1)N1C[C@@H]2CC[C@H]1[C@H](Nc1cnc(C(F)(F)F)cn1)C2 [Example 277]
Given back: 7.77

Asked: // fetch pKi given entry O=C(c1ccccc1-n1nccn1)N1C[C@H]2C[C@@H](Oc3ncc(Cl)cn3)[C@@H]1C2 [Example 300]
Given back: 7.04

Asked: // fetch pKi given entry O=C(c1c(F)cccc1-c1ncco1)N1C[C@H]2C[C@@H](Oc3ccc(C(F)(F)F)cn3)[C@@H]1C2 [Example 292]
Given back: 7.72

Asked: // fetch pKi given entry O=C(c1cccc(F)c1-c1ncccn1)N1C[C@H]2C[C@@H](Nc3ncc(Cl)cn3)[C@@H]1C2 [Example 236]
Given back: 8.00

Asked: // fetch pKi given entry Cc1ccc(-n2nccn2)c(C(=O)N2CC3CC(Oc4ncc(C(F)(F)F)cc4F)C2C3)n1 (stereo not shown) [Example 98]
Given back: 7.43

---

Recorded Ki values for a group of compounds are listed next.
- Target under test: rat orexin 1 receptor (Rattus norvegicus, UniProt P56718)
- Assay remarks: Rat orexin 1 receptor radioligand binding
- Reported conditions: rat orexin 1 receptor; averages of 2-20 runs; read-out: rOX1 Ki
The reply should contain only the number, in nM.

Below: 3 compounds and their reported Ki.
{"Compound": "O=C(c1cccc(F)c1-c1ncccn1)N1C[C@H]2C[C@@H](Oc3ccc(C(F)F)cn3)[C@@H]1C2 [Example 123]", "Value unit": "nM", "Ki": 11}
{"Compound": "Cc1ccc(-c2ncccn2)c(C(=O)N2C[C@H]3C[C@@H](Oc4ccc(C(F)(F)F)nn4)[C@@H]2C3)n1 [Example 142]", "Value unit": "nM", "Ki": 376}
{"Compound": "Cc1cnc(N[C@@H]2C[C@H]3C[C@@H]2N(C(=O)c2ccccc2-c2ncccn2)C3)cn1 [Example 220]", "Value unit": "nM", "Ki": 11}

Asked: // fetch Ki given entry Cc1ccc(-c2ncccn2)c(C(=O)N2C[C@@H]3CC[C@H]2[C@H](Oc2ccc(C(F)(F)F)cn2)C3)n1 [Example 265]
Given back: 14

---

- Target under test: human orexin 2 receptor (Homo sapiens (Human), UniProt O43614)
- Sequence (O43614 whole entry): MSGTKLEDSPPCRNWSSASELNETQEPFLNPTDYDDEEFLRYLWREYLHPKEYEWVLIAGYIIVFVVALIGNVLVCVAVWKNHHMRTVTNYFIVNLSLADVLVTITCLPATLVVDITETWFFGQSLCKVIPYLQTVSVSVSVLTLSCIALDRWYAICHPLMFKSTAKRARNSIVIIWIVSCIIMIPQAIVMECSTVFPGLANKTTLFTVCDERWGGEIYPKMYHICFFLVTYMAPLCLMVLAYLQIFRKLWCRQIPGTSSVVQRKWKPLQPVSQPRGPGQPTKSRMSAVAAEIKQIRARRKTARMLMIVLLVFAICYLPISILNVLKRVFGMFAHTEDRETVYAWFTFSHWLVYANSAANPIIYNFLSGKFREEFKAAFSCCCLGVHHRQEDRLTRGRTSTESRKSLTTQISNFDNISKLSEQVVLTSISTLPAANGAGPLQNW
- Assay remarks: Human orexin 2 receptor radioligand binding
- Reported conditions: human orexin 2 receptor; averages of 2-20 runs; read-out: hOX2 Ki
Lab note: compare Ki with 800 nM, writing MET if less and NOT MET if equal or more.

The following compounds have reported results that may help.
{"Compound": "O=C(c1cccc(F)c1-c1ncccn1)N1C[C@H]2C[C@@H](Oc3ccccn3)[C@@H]1C2 [Example 104]", "Target under test": "human orexin 2 receptor (Homo sapiens (Human), UniProt O43614)", "Class label": "NOT MET"}
{"Compound": "O=C(c1cccc(F)c1-c1ncccn1)N1C[C@H]2C[C@@H](N(CC3CC3)c3cnc(C(F)(F)F)cn3)[C@@H]1C2 [Example 211]", "Target under test": "human orexin 2 receptor (Homo sapiens (Human), UniProt O43614)", "Class label": "NOT MET"}
{"Compound": "O=C(c1c(F)cccc1-n1nccn1)N1C[C@H]2C[C@@H](Oc3ccc(Br)cn3)[C@@H]1C2 [Example 109]", "Target under test": "human orexin 2 receptor (Homo sapiens (Human), UniProt O43614)", "Class label": "MET"}
{"Compound": "O=C(c1c(F)cccc1-c1ncccn1)N1C[C@@H]2CC[C@H]1[C@H](Nc1cnc(C(F)(F)F)cn1)C2 [Example 279]", "Target under test": "human orexin 2 receptor (Homo sapiens (Human), UniProt O43614)", "Class label": "MET"}
{"Compound": "O=C(c1cccc(F)c1-n1nccn1)N1C[C@H]2C[C@@H](Nc3ncc(Cl)cn3)[C@@H]1C2 [Example 234]", "Target under test": "human orexin 2 receptor (Homo sapiens (Human), UniProt O43614)", "Class label": "NOT MET"}

Asked: Record O=C(c1cc(F)ccc1-n1nccn1)N1C[C@H]2C[C@@H](Nc3ccc(C(F)(F)F)cn3)[C@@H]1C2 [Example 57] : is its Ki strictly below 800 nM?
Given back: MET

Asked: Record O=C(c1cc(F)ccc1-n1nccn1)N1CC2CC(Nc3cnc(Cl)cn3)C1C2 (stereo not shown) [Example 213] : is its Ki strictly below 800 nM?
Given back: NOT MET

Asked: Record O=C(c1ccccc1-n1nccn1)N1C[C@H]2C[C@@H](Oc3ncc(C(F)(F)F)cc3F)[C@@H]1C2 [Example 97] : is its Ki strictly below 800 nM?
Given back: NOT MET

Asked: Record O=C(c1cccc(F)c1-c1ncc(F)cn1)N1C[C@H]2C[C@@H](Nc3cnc(C(F)(F)F)cn3)[C@@H]1C2 [Example 204] : is its Ki strictly below 800 nM?
Given back: NOT MET

Asked: Record O=C(c1ccccc1-c1ncc(F)cn1)N1C[C@H]2C[C@@H](Nc3cnc(C(F)(F)F)cn3)[C@@H]1C2 [Example 203] : is its Ki strictly below 800 nM?
Given back: MET

---

- Target under test: rat orexin 1 receptor (Rattus norvegicus)
- Assay remarks: Rat orexin 1 receptor radioligand binding
- Reported conditions: rat orexin 1 receptor; averages of 2-20 runs; read-out: rOX1 Ki
pKi: −log10 of the molar value.
Decision: pKi compared against 8; not below it gives Criterion met, below it gives Criterion not met.

{"Compound smiles": "O=C(c1cccc(F)c1-c1ncccn1)N1C[C@@H]2CC[C@H]1[C@H](Oc1ncc(C(F)(F)F)cc1Cl)C2", "Target under test": "rat orexin 1 receptor (Rattus norvegicus)", "Class label": "Criterion met"}
{"Compound smiles": "O=C(c1ccccc1-n1nccn1)N1C[C@H]2C[C@@H](Nc3ncc(C(F)(F)F)cn3)[C@@H]1C2", "Target under test": "rat orexin 1 receptor (Rattus norvegicus)", "Class label": "Criterion not met"}

Lab note: next compound to report on.
Asked: Does the compound O=C(c1ccccc1-n1nccn1)N1C[C@H]2C[C@@H](Nc3ccc(C(F)(F)F)nn3)[C@@H]1C2 have recorded pKi that is 8 or more?
Given back: Criterion not met

---

- Target under test: rat orexin 1 receptor (Rattus norvegicus)
- Assay remarks: Rat orexin 1 receptor radioligand binding
- Reported conditions: rat orexin 1 receptor; averages of 2-20 runs; read-out: rOX1 Ki
pKi: −log10 of the molar value.
Decision: pKi compared against 7; not below it gives Satisfied, below it gives Not satisfied.

{"Molecule": "Cc1ccc(-n2nccn2)c(C(=O)N2C[C@@H]3CC[C@H]2[C@H](Oc2cnc(C(F)(F)F)cn2)C3)n1 [Example 77]", "Class label": "Satisfied"}
{"Molecule": "O=C(c1cc(F)ccc1-c1ncco1)N1C[C@H]2C[C@@H](Oc3ccc(C(F)(F)F)cn3)[C@@H]1C2 [Example 293]", "Class label": "Satisfied"}

Asked: Does the molecule O=C(c1cccc(F)c1-c1ncccn1)N1C[C@H]2C[C@@H](Oc3ccccn3)[C@@H]1C2 [Example 104] have recorded pKi that is 7 or more?
Given back: Not satisfied

FYI, the data here is from patent US9611277B2.
